// data source = patent US8471005B2

Each record here notes measured pIC50.
# SYSTEM: ALK (Homo sapiens)
# Construct: host or cells: baculovirus expression system
# METHOD_SUMMARY: ALK Kinase Assay (ELISA/TRF, PLC-γ substrate)
# Type: biochemical
# APPLIED_CONDITIONS: ALK Kinase Inhibition; read-out: ALK Potency
pIC50: −log10 of the molar value.

Here is how some compounds turned out for pIC50.
c1ccc(-c2ccc3cnc(Nc4ccc(N5CCOCC5)cc4)nn23)cc1 [Example 2]
6.00 to 7.00
CN(c1ccccc1-c1ccc2cnc(Nc3ccc4nc(CN5CCN(CCO)CC5)[nH]c4c3)nn12)S(C)(=O)=O [Example 1521]
6.00 to 7.00
O=C(c1ccc(Nc2ncc3ccc(-c4cccc(Cl)c4)n3n2)cc1)N1CCOCC1 [Example 316]
6.00 to 7.00

## Task Give ALK (Homo sapiens) pIC50 for the following compound: CN1C(=O)Cc2cc(Nc3ncc4ccc(-c5ccc(S(C)(=O)=O)cc5)n4n3)ccc21 [Example 373]
## Result 5.00 to 6.00

## Task Give ALK (Homo sapiens) pIC50 for the following compound: CC(=O)N1CCOc2ccc(Nc3ncc4ccc(-c5ccccc5N(C)S(C)(=O)=O)n4n3)cc21 [Example 1374]
## Result 6.00 to 7.00

## Task Give ALK (Homo sapiens) pIC50 for the following compound: CS(=O)(=O)c1cccc(-c2ccc3cnc(Nc4ccc(C5CCN(CC(N)=O)CC5)cc4)nn23)c1 [Example 1434]
## Result 6.00 to 7.00

## Task Give ALK (Homo sapiens) pIC50 for the following compound: COc1ccccc1-c1ccc2cnc(Nc3ccc(N4CCN(C)CC4)c(Cl)c3)nn12 [Example 1418]
## Result > 7.00

## Task Give ALK (Homo sapiens) pIC50 for the following compound: c1cncc(-c2ccc3cnc(Nc4ccc(N5CCCC(N6CCOCC6)C5)cc4)nn23)c1 (centres unmarked) [Example 347]
## Result 6.00 to 7.00

====

# SYSTEM: JAK2 (Homo sapiens, UniProt O60674)
# Construct: host or cells: baculovirus expression system
# Sequence (O60674 whole entry): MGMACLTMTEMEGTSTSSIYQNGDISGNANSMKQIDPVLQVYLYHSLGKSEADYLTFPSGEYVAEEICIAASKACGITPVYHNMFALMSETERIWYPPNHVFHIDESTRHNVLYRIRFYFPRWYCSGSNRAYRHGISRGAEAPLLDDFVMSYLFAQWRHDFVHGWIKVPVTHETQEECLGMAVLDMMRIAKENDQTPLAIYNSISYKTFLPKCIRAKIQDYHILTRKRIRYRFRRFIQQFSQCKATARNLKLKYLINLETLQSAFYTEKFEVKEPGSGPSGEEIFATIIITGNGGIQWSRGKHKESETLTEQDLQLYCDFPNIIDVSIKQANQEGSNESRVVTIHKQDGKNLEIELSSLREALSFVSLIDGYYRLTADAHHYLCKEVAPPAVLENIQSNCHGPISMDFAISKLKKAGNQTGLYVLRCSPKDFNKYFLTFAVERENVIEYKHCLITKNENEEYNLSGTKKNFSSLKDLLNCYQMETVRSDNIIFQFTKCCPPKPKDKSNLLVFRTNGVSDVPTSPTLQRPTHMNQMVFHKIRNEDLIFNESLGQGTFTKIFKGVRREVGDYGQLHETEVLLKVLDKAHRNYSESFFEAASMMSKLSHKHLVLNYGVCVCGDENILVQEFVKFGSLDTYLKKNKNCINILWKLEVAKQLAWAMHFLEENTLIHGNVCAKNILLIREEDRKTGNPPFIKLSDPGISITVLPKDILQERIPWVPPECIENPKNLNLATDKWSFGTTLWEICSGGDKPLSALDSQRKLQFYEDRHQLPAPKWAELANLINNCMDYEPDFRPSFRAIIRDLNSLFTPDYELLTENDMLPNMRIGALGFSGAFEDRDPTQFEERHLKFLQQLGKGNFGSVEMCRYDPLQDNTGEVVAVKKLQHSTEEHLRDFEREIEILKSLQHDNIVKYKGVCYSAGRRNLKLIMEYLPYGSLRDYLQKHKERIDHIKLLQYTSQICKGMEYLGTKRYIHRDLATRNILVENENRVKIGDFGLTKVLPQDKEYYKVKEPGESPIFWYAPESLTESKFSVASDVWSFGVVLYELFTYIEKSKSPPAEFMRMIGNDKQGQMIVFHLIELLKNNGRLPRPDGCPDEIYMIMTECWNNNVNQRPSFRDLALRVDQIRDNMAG
# METHOD_SUMMARY: Recombinant Human JAK2 Kinase Assay (TRF)
# Format: biochemical
# APPLIED_CONDITIONS: JAK2 kinase inhibition, 0.2 μM ATP; read-out: JAK2 Potency
# Protocol: Compounds were tested for their ability to inhibit the kinase activity of baculovirus-expressed JAK2 using the TRF detection system. […] The plates were coated first with 100 μL/well of 10 μg/mL Neutravidin (Pierce #31000, Rockford, Ill.) in TBS at 37° C. for 2 hours, followed by 100 μL/well of 1 μg/mL 15-mer peptide substrate (biotinyl-amino-hexanoyl-[…]-amide, Infinity Biotech Research and Resource, Aston, Pa.) at 37° C. for another hour. […]
MEASURED_QUANTITY: IC50

COc1ccccc1-c1ccc2cnc(Nc3ccc(N4CCN(C)CC4)cc3Cl)nn12
< 100 nM
COc1ccccc1-c1ccc2cnc(Nc3ccc(C4CCN(CCO)CC4)cc3)nn12
< 100 nM
Cn1ncc2cc(Nc3ncc4ccc(-c5cccc(S(=O)(=O)NC(C)(C)C)c5)n4n3)ccc21
< 100 nM

// below: IC50 requested for another molecule
## Task Give JAK2 (Homo sapiens, UniProt O60674) IC50 for the following molecule: COc1cc(N2CCC(N3CCCN(CCO)CC3)CC2)ccc1Nc1ncc2ccc(-c3ccccc3N(C)S(C)(=O)=O)n2n1
## Result 100 to 1000 nM

====

# SYSTEM: JAK2 (Homo sapiens, UniProt O60674)
# Construct: host or cells: baculovirus expression system
# METHOD_SUMMARY: Recombinant Human JAK2 Kinase Assay (TRF)
# Type: biochemical
# APPLIED_CONDITIONS: JAK2 kinase inhibition, 0.2 μM ATP; read-out: JAK2 Potency
MEASURED_QUANTITY: IC50

CN(c1ccccc1-c1ccc2cnc(Nc3nccs3)nn12)S(C)(=O)=O
100 to 1000 nM

## Task For the compound COc1ccccc1-c1ccc2cnc(Nc3ccc(OCCN4CCOCC4)cc3)nn12 , give its reported IC50.
## Result < 100 nM

## Task For the compound COc1cc(C2(O)CCN(C(=O)OC(C)(C)C)CC2)ccc1Nc1ncc2ccc(-c3ccccc3N(C)S(C)(=O)=O)n2n1 , give its reported IC50.
## Result 100 to 1000 nM

## Task For the compound CN(C)S(=O)(=O)c1cccc(Nc2ncc3ccc(-c4cccc(S(=O)(=O)NC(C)(C)C)c4)n3n2)c1 , give its reported IC50.
## Result < 100 nM

====

Each record here notes measured IC50.
# SYSTEM: ALK (Homo sapiens)
# Construct: host or cells: baculovirus expression system
# METHOD_SUMMARY: ALK Kinase Assay (ELISA/TRF, PLC-γ substrate)
# Format: biochemical
# APPLIED_CONDITIONS: ALK Kinase Inhibition; read-out: ALK Potency

Here is how some compounds turned out for IC50.
CNC(=O)c1ccc(-c2ccc3cnc(Nc4cccc(N5CCOCC5)c4)nn23)cc1
100 to 1000 nM
CN1CCN(c2ccc(Nc3ncc4ccc(-c5ccccc5S(=O)(=O)NC(C)(C)C)n4n3)cc2)CC1
< 100 nM
CC1(C)CCC(=O)Nc2cc(Nc3ncc4ccc(-c5ccc(S(C)(=O)=O)cc5)n4n3)ccc21
1000 to 10000 nM
O=C(c1cccc(Nc2ncc3ccc(-c4cccc(Cl)c4)n3n2)c1)N1CCOCC1
100 to 1000 nM
COc1cc(N2CCCC(N3CCN(CCO)CC3)C2)ccc1Nc1ncc2ccc(-c3ccccc3OC)n2n1 (stereo not shown)
< 100 nM

## Task For the compound CN(c1ccccc1-c1ccc2cnc(Nc3ccc(CN4CCCC4)cc3)nn12)S(C)(=O)=O , give its reported IC50.
## Result 100 to 1000 nM

## Task For the compound CS(=O)(=O)c1ccc(-c2ccc3cnc(Nc4cccc(N5CCOCC5)c4)nn23)cc1 , give its reported IC50.
## Result 1000 to 10000 nM

## Task For the compound NC(=O)c1cccc(Nc2ncc3ccc(-c4cccc(Cl)c4)n3n2)c1 , give its reported IC50.
## Result 1000 to 10000 nM

## Task For the compound COc1cc(N2CCC(N3CCC(F)(F)CC3)CC2)ccc1Nc1ncc2ccc(-c3ccccc3OC)n2n1 , give its reported IC50.
## Result < 100 nM

## Task For the compound COc1ccc(Nc2ncc3ccc(-c4cc(Cl)ccc4OC)n3n2)cc1OC , give its reported IC50.
## Result 100 to 1000 nM

## Task For the compound CCOc1ccccc1-c1ccc2cnc(Nc3ccc(N4CCC(N5CCOCC5)CC4)cc3OC)nn12 , give its reported IC50.
## Result < 100 nM

## Task For the compound OC(c1ccccc1)c1ccc2cnc(Nc3ccc(N4CCOCC4)cc3)nn12 (stereo not shown) , give its reported IC50.
## Result 1000 to 10000 nM

## Task For the compound CS(=O)(=O)Nc1cccc(-c2ccc3cnc(Nc4ccc(F)c(N5CCOCC5)c4)nn23)c1 , give its reported IC50.
## Result 100 to 1000 nM

## Task For the compound COc1cc(N2CCN(C)CC2)ccc1Nc1ncc2ccc(-c3ccc(S(C)(=O)=O)cc3)n2n1 , give its reported IC50.
## Result 100 to 1000 nM

## Task For the compound COCC(C)OC(=O)COc1ccccc1-c1ccc2cnc(Nc3ccc(N4CCN(C)CC4)c(F)c3)nn12 (stereo not shown) , give its reported IC50.
## Result 1000 to 10000 nM

## Task For the compound CN1CCN(CCOc2ccc(Nc3ncc4ccc(-c5cccnc5)n4n3)cc2)CC1 , give its reported IC50.
## Result 100 to 1000 nM

====

# SYSTEM: ALK (Homo sapiens, UniProt Q9UM73)
# Construct: host or cells: baculovirus expression system
# Sequence (Q9UM73 19-1620): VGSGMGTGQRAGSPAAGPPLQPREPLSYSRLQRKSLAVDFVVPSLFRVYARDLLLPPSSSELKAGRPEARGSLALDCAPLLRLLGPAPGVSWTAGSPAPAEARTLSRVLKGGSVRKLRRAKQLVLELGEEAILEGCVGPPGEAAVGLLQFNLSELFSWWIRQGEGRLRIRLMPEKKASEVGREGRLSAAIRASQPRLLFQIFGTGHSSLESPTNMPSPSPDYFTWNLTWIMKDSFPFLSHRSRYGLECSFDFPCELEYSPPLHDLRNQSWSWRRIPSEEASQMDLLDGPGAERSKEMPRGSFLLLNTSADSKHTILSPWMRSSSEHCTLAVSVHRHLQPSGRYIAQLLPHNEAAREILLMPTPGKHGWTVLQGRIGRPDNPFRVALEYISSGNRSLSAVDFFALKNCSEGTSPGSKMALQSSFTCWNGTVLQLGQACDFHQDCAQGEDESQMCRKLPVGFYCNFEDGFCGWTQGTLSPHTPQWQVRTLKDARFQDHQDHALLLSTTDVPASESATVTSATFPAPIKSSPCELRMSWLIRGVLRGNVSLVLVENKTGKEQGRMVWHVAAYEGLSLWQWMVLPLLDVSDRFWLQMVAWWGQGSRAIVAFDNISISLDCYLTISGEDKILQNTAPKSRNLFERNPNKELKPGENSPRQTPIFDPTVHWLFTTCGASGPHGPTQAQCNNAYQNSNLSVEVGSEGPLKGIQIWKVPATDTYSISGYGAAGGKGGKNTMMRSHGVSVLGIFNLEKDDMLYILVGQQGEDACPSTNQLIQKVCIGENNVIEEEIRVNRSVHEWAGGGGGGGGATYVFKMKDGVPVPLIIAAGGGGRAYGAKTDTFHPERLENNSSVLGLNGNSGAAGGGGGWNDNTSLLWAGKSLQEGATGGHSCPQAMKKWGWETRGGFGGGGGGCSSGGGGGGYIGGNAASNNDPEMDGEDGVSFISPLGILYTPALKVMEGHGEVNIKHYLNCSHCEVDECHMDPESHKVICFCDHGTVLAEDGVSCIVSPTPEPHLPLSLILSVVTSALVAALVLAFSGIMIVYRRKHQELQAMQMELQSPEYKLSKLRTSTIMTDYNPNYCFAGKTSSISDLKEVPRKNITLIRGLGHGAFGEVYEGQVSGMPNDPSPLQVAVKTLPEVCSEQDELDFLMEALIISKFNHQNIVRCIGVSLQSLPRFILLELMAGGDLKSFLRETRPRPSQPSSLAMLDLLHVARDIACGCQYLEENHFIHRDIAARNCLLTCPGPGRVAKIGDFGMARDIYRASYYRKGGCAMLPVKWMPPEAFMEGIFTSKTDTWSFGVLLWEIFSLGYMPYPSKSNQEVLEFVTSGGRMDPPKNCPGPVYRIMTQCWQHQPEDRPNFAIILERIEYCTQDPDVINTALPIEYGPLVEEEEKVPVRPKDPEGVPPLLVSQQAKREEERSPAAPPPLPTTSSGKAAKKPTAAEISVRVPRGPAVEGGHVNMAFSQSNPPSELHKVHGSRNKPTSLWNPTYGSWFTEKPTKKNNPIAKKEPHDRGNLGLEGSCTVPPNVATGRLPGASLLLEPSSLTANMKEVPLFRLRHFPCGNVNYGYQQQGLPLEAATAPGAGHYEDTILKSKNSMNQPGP
# METHOD_SUMMARY: ALK Kinase Assay (ELISA/TRF, PLC-γ substrate)
# Assay type: biochemical
# APPLIED_CONDITIONS: ALK kinase inhibition, 1 μM ATP; read-out: ALK Potency
pIC50: −log10 of the molar value.
Each record here notes measured pIC50.

Cn1ncc2cc(Nc3ncc4ccc(-c5cccc(S(=O)(=O)CC6CC6)c5)n4n3)ccc21
5.00 to 6.00
CCN1CCCC(CC)(c2ccc(Nc3ncc4ccc(-c5ccccc5OC)n4n3)cc2)C1 (racemic)
> 7.00
COc1ccccc1-c1ccc2cnc(Nc3ccc(N4CCN(C)CC4)nc3)nn12
6.00 to 7.00
COc1ccc(-c2ccc3cnc(Nc4ccc(N5CCOCC5)cc4)nn23)cn1
5.00 to 6.00
COc1cc(C2=CCNCC2)ccc1Nc1ncc2ccc(-c3ccccc3N(C)S(C)(=O)=O)n2n1
> 7.00
COc1cc(N2CCCN(C3CCN(C)CC3)CC2)ccc1Nc1ncc2ccc(-c3ccccc3N(C)S(C)(=O)=O)n2n1
> 7.00
NC(=O)CN1CCC(c2ccc(Nc3ncc4ccc(C5=CCNCC5)n4n3)cc2)CC1
6.00 to 7.00
CN1CCN(c2ccc(Nc3ncc4ccc(-c5cnn(C)c5)n4n3)cc2F)CC1
6.00 to 7.00
COc1ccccc1-c1ccc2cnc(Nc3ccc4c(c3OC)CN(C3CCN(C)CC3)C4)nn12
> 7.00
COc1ccccc1-c1ccc2cnc(Nc3ccc(C4CN(CC(N)=O)C4)cc3)nn12
6.00 to 7.00

## Task For the compound NC(=O)CN1CCC(c2ccc(Nc3ncc4ccc(-c5cccc(CO)c5)n4n3)cc2)CC1 , give its reported pIC50.
## Result 6.00 to 7.00

## Task For the compound COc1cc(N2CCN(C[C@@H](C)O)CC2)ccc1Nc1ncc2ccc(-c3cc(Cl)ccc3OC)n2n1 , give its reported pIC50.
## Result > 7.00
